Reported TGI values are given for each entry in this list.
System: SNB-75 CNS
Assay: NCI tumour cell line growth inhibition, 48 h

>  <compound>
Cc1cc2[nH]c(=O)c3c4ccccc4cn3c2cc1C

>  <TGI>
30.4 µM

$$$$
>  <compound>
COc1c(Br)cc(/C=C(\C#N)c2cccnc2)cc1Br

>  <TGI>
> 100 µM

$$$$
>  <compound>
N#CCCN(c1ccc(C=Nc2ccccc2Cl)cc1)S(=O)(=O)c1ccccc1

>  <TGI>
> 100 µM

$$$$
>  <compound>
CC(C)C(Sc1nc(-c2ccccc2)c(-c2ccccc2)[nH]1)C(=O)NN (stereo unspecified)

>  <TGI>
> 100 µM

$$$$
>  <compound>
Cc1ccc(N(C(=O)Nc2ccc(F)c(Cl)c2)C2=NCC(C)S2)cc1 (stereo unspecified)

>  <TGI>
> 100 µM

$$$$

Prompt line: Report TGI, nothing else, for this compound: `Cn1ccc2c(C(=O)c3ccccc3)cccc2c1=O`
Response line: 72.3 µM

###

System: HOP-62 NSCLC
Assay: NCI tumour cell line growth inhibition, 48 h
reportedMetric: TGI

>  <compound>
Oc1cc(-c2ccc(Cl)cc2)cn2c1nc1ccccc12

>  <reportedMetric>
TGI

>  <measuredResult>
> 100 µM

$$$$

Prompt line: Report TGI, nothing else, for this compound: `COc1cc(-n2cc(-c3ccc(Cl)cc3)nc2SCc2cccc(C#N)c2)cc(OC)c1OC`
Response line: > 100 µM

Prompt line: Report TGI, nothing else, for this compound: Cc1ccc2c(c1)C(C)Cc1c(Cl)ncnc1N2C (centres undefined)
Response line: 22.2 µM

Prompt line: Report TGI, nothing else, for this compound: CN1CCCOC(c2ccc([N+](=O)[O-])cc2)O1 (centres undefined)
Response line: > 100 µM

Prompt line: Report TGI, nothing else, for this compound: `CC(=O)OCC(=O)[C@@]12OC(C)(C)O[C@@H]1C[C@H]1[C@@H]3CC=C4C[C@@H](O)CC[C@]4(C)[C@H]3CC[C@@]12C`
Response line: > 100 µM

Prompt line: Report TGI, nothing else, for this compound: `COc1cc(NC(=O)CSc2nc3ccc(C)cc3c(=O)n2Cc2ccccc2)cc(OC)c1OC`
Response line: 5.8 µM

Prompt line: Report TGI, nothing else, for this compound: COc1ccc(N2C(=O)C3c4[nH]c5ccccc5c4C4CC(C)CC(C)C4C3C2=O)cc1 (centres undefined)
Response line: > 100 µM

Prompt line: Report TGI, nothing else, for this compound: `C=C(C)[C@@H]1CC[C@]2(C)[C@H](CC=C3[C@@H]4[C@@H](C)[C@H](C)CC[C@]4(C(N)=O)CC[C@]32C)[C@@]1(C)CCC#N`
Response line: > 100 µM

Prompt line: Report TGI, nothing else, for this compound: O=C(O)NCC1CCCCC1 (tested in a mixture with another compound)
Response line: 33.8 µM

Prompt line: Report TGI, nothing else, for this compound: OC1[C@H](O)CN(OCc2ccccc2)C[C@@H]1O (some centres undefined)
Response line: > 100 µM

Prompt line: Report TGI, nothing else, for this compound: `Cc1ccc([N+](=O)[O-])cc1NC(=O)c1cccc([N+](=O)[O-])c1O`
Response line: 34 µM

Prompt line: Report TGI, nothing else, for this compound: `Cc1c2c(Cl)c3c(c(Cl)c2c(C)c2c(Cl)c4c(c(Cl)c12)C(c1ccccc1)(c1ccccc1)C4(c1ccccc1)c1ccccc1)C(c1ccccc1)(c1ccccc1)C3(c1ccccc1)c1ccccc1`
Response line: > 100 µM

Prompt line: Report TGI, nothing else, for this compound: CC1=NN(C(=O)CC(=O)NC(=O)CC(=O)Nc2ccccc2F)C(=O)C1N=Nc1ccc([N+](=O)[O-])cc1 (centres undefined)
Response line: > 100 µM

Prompt line: Report TGI, nothing else, for this compound: O=c1n(-c2ccccc2)c(=O)n2n1C1Cc3ccccc3C12 (centres undefined)
Response line: > 100 µM

###

Test system: SK-MEL-5 melanoma
Assay: NCI tumour cell line growth inhibition, 48 h; in the data active means GI50 below about 0.43 µM; inactive means the rest
Tick one outcome: active, inactive

Answered cases to consult:
>  <molecule>
NCCN.NCCN.O=C([O-])CCl.O=C([O-])CCl.[Co+3].[O-][Cl+3]([O-])([O-])[O-]

>  <tgt>
SK-MEL-5 melanoma

>  <classification>
inactive

$$$$
>  <molecule>
N#CC1=C(N)Oc2c(sc3c(Br)cccc23)C1c1ccc(Br)cc1 (stereo not given)

>  <tgt>
SK-MEL-5 melanoma

>  <classification>
inactive

$$$$
>  <molecule>
COc1ccc(-n2cc(-c3cc(OC)c(OC)c(OC)c3)nc2SCc2ccccc2)cc1OC

>  <tgt>
SK-MEL-5 melanoma

>  <classification>
inactive

$$$$
>  <molecule>
CC(C)COCC(CN(Cc1ccccc1)c1ccccc1)N1CCCC1 (stereo not given)

>  <tgt>
SK-MEL-5 melanoma

>  <classification>
inactive

$$$$

Prompt line: I'd appreciate the recorded outcome for `COc1ccc(/C(=N\O)c2cc(C)c(OC)c(C)c2)cc1O` from this test.
Response line: active

###

Reported TGI values are given for each entry in this list.
System: NCI-H522 lung
Assay: NCI tumour cell line growth inhibition, 48 h
Write down the numeric answer in µM and omit the unit.

>  <chemicalSmiles>
COc1ccc(S(=O)(=O)Nc2cc(/C=C\c3cc(OC)c(OC)c(OC)c3)ccc2OC)cc1

>  <tgt>
NCI-H522 lung

>  <TGI (µM)>
0.0564

$$$$

Prompt line: Report TGI, nothing else, for this molecule: `COc1ccc2c(c1)-c1[nH]c3ccc(OC)cc3c1CC2`
Response line: 17.6

###

Reported GI50 values are given for each entry in this list.
Tested on: KM12 colon
Experiment: NCI tumour cell line growth inhibition, 48 h

Some compounds with recorded GI50:
>  <compound>
CNC(=O)CC1NC(=O)c2csc(n2)-c2ccc(-c3nc(C4=NC(C(=O)N5CCCC5C(N)=O)CO4)cs3)nc2-c2csc(n2)-c2csc(n2)C(C(C)C)NC(=O)CNC(=O)c2csc(n2)C(C(C)C)NC(=O)c2nc1sc2C (stereo unspecified)

>  <tgt>
KM12 colon

>  <reportedMetric>
GI50

>  <measuredResult>
> 25000 nM

$$$$
>  <compound>
CNCCNc1c2c(c(NCCNC)c3[nH]ccc13)C(=O)c1ccccc1C2=O

>  <tgt>
KM12 colon

>  <reportedMetric>
GI50

>  <measuredResult>
89.2 nM

$$$$
>  <compound>
Cc1cc(=O)[nH]c2cc3c(c4c(n3Cc3ccc(Cl)cc3Cl)CC(C)(C)CC4=O)c(O)c12

>  <tgt>
KM12 colon

>  <reportedMetric>
GI50

>  <measuredResult>
> 100000 nM

$$$$

Prompt line: Recall the reported GI50 of N#CC1=C(N)Oc2c(sc3c(Br)cccc23)C1c1ccc(Br)cc1 (stereo unspecified) when tested on KM12 colon.
Response line: 434 nM

Prompt line: Recall the reported GI50 of `COc1cc(NC(=O)CSc2nc3ccc(C)cc3c(=O)n2Cc2ccccc2)cc(OC)c1OC` when tested on KM12 colon.
Response line: 29900 nM

Prompt line: Recall the reported GI50 of CCCCCCCCCCCCOC1C(C(COC2OC(C3COC(C)(C)O3)C3OC(C)(C)OC23)NC(=O)NS(=O)(=O)c2ccccc2)OC2OC(C)(C)OC21 (stereo unspecified) when tested on KM12 colon.
Response line: 5150 nM

Prompt line: Recall the reported GI50 of COC(=O)C1CCCN1C(=O)[C@@H]1CCCN1C(=O)[C@H](Cc1c[nH]c2ccccc12)NC(=S)Nc1cc(C(F)(F)F)cc(C(F)(F)F)c1 (stereo partly specified) when tested on KM12 colon.
Response line: 1920 nM

Prompt line: Recall the reported GI50 of `Clc1ccc2nnnn2n1` when tested on KM12 colon.
Response line: 2080 nM

Prompt line: Recall the reported GI50 of Nc1nc(N)c2c(n1)NC(c1ccc(F)cc1)C1CCc3ccccc3C1=N2 (stereo unspecified) when tested on KM12 colon.
Response line: 4930 nM

Prompt line: Recall the reported GI50 of OC(CNCC1CCCO1)Cn1c2ccc(Cl)cc2c2cc(Cl)ccc21 (stereo unspecified) when tested on KM12 colon.
Response line: 1810 nM

Prompt line: Recall the reported GI50 of CCCCCCCCCCC(C(O)c1ccccc1)N1CCCCC1 (stereo unspecified) when tested on KM12 colon.
Response line: 1290 nM

Prompt line: Recall the reported GI50 of `COc1ccc(/C(=N\O)c2cc(C)c(OC)c(C)c2)cc1O` when tested on KM12 colon.
Response line: < 10 nM

###

Tested on: K-562 leukemia
Assay: NCI tumour cell line growth inhibition, 48 h; in the data active = GI50 below about 0.43 µM; inactive = the rest
Tick one outcome: active, inactive

Prompt line: I'd appreciate the recorded outcome for CCCCCCCCCCC(C(O)c1ccccc1)N1CCCCC1 (centres undefined) from this test.
Response line: inactive

###

Tested on: UACC-257 melanoma
Assay: NCI tumour cell line growth inhibition, 48 h
reportedMetric: TGI

Some molecules with recorded TGI:
>  <molecule>
CCN(CC)c1c(-c2c(N(CC)CC)c(OC(C)=O)c3sccn3c2=O)c(=O)n2ccsc2c1OC(C)=O

>  <measuredResult>
> 100 µM

$$$$
>  <molecule>
CC1OC(OC2C(OC(=O)[C@@H]3CC(C)(C)C[C@@H]4C5=CC[C@@H]6[C@@]7(C)C[C@H](O)[C@H](OC8OC(CO)C(O)C(O)C8O)[C@@](C)(CO)C7[C@H](O)C[C@@]6(C)[C@]5(C)C[C@@H](O)[C@H]43)OCC(O)C2O)C(O)C(O)C1O (stereo partly drawn)

>  <measuredResult>
> 15 µM

$$$$
>  <molecule>
CC(O)c1ccc[n+](Cc2ccccc2)c1 (stereo not drawn)

>  <measuredResult>
> 400 µM

$$$$

Prompt line: Report TGI, nothing else, for this molecule: `COc1ccc(C(=O)/C=C/c2ccc3c(c2)OCO3)c(OCc2ccccc2)c1`
Response line: > 100 µM

Prompt line: Report TGI, nothing else, for this molecule: COc1ccc(OC2OC(COC(c3ccccc3)(c3ccc(OC)cc3)c3ccc(OC)cc3)C(O)C(O)C2O)cc1 (stereo not drawn)
Response line: 20.1 µM

Prompt line: Report TGI, nothing else, for this molecule: `CN(C)CCNC(=O)c1cccc2[nH]c(-c3cccnc3)nc12`
Response line: 39.9 µM

Prompt line: Report TGI, nothing else, for this molecule: OC(c1cc(-c2ccc(Cl)cc2)nc2ccccc12)C1CCCCN1 (stereo not drawn)
Response line: 9.71 µM

Prompt line: Report TGI, nothing else, for this molecule: `O=C1CCCC(=O)N1CCc1c[nH]c2ccccc12`
Response line: > 100 µM

The reported numbers originate from PubChem BioAssay (NCI).
